# Test summary: Mouse liver microsome assay (half-life, intrinsic clearance)
# Conditions used: mouse, microsomes
Recorded metric: CLint

INSERT INTO results (compound, recorded_metric, result) VALUES
  ('CC(C)(CN)CNC(=O)C[C@@H]1CCC[C@]2(C1)OOC1(O2)C2CC3CC(C2)CC1C3 (stereo partly drawn) [12d]', 'CLint', '10.8 μL/min/mg of protein'),
  ('NCCNC(=O)C[C@@H]1CCC[C@]2(C1)OOC1(O2)C2CC3CC(C2)CC1C3 (stereo partly drawn) [12c]', 'CLint', '8.2 μL/min/mg of protein'),
  ('CC(C)(N)CNC(=O)C[C@H]1CC[C@]2(CC1)OO[C@]1(O2)C2CC3CC(C2)CC1C3 [2a, arterolane, reference compound]', 'CLint', '5.4 μL/min/mg of protein');
